- Study system: Muscarinic acetylcholine receptor M5 (Homo sapiens) (UniProt P08912)
- Sequence (whole entry): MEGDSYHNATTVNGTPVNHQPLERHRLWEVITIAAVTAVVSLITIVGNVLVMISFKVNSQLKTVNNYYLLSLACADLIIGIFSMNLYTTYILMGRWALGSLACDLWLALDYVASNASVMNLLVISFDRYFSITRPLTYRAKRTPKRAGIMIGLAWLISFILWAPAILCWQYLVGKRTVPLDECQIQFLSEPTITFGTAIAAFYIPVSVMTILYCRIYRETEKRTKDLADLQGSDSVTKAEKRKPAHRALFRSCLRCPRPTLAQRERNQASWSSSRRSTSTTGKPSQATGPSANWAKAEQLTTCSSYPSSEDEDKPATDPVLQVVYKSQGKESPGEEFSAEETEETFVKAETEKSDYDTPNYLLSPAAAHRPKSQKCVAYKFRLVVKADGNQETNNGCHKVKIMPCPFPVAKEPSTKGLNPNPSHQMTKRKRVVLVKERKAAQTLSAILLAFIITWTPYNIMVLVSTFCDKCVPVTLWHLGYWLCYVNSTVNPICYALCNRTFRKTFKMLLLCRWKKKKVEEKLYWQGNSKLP
- Protocol summary: Negative allosteric modulation of human muscarinic acetylcholine receptor M5 expressed in CHO cells assessed as reduction of acetylcholine-induced calcium mobilization at 10 uM incubated for 150 secs prior to acetylcholine induction by Fluo-4 AM staining-based fluorescence assay relative to control
- Type: functional, cell-based
- Parameters: scale not given: the % may be the effect or the level left
Recorded Activity, one value per entry.
Enter your answer as a number in %; do not include the unit.

# example entries with known answers
>  <Compound>
Cc1ccc(C23c4ccccc4C(=O)N2CCN3C(=O)c2ccc(F)c(F)c2)cc1 (centres undefined)

>  <Reading unit>
%

>  <Activity>
-6.8

$$$$
>  <Compound>
O=C(c1ccc(SC(F)(F)F)cc1)N1CCN2C(=O)c3ccccc3C12c1ccc(F)cc1 (centres undefined)

>  <Reading unit>
%

>  <Activity>
-0.2

$$$$

Fill in the blank: the reported Activity of O=C(c1cc(Cl)cc(Cl)c1)N1CCN2C(=O)c3ccccc3C12c1ccccc1 (centres undefined) is ____. 0

Requested read-out: Activity. Entry: O=C(c1ccc(OC(F)(F)F)cc1)N1CCN2C(=O)c3ccccc3C12c1ccccc1 (centres undefined) 0.2

What value of Activity has been reported for the following compound? O=C(c1cccc(C(F)(F)F)c1)N1CCN2C(=O)c3ccccc3C12c1ccc(F)cc1 (centres undefined) -2.4

Reported Activity for O=C(c1ccc(F)c(F)c1)N1CCN2C(=O)c3ccccc3C12c1ccc(Cl)cc1 (racemic) : what is it? 0.1

What measured Activity goes with O=C(c1cccc(C(F)(F)F)c1)N1CCN2C(=O)c3ccccc3C12c1ccccc1 (centres undefined) ? -0.7

Look up Activity for this compound: O=C(c1cc(F)cc(F)c1)N1CCN2C(=O)c3ccccc3C12c1ccc(Cl)cc1 (centres undefined) 2.8

Data request, read-out Activity, for Cc1ccc(C23c4ccccc4C(=O)N2CCN3C(=O)c2cc(F)cc(F)c2)cc1 (centres undefined) -1.1

====

- Protocol summary: Elimination half life in Sprague-Dawley rat at 1 mg/kg, iv
- Format: ADME, organism-based
- Design: dose 1 mg/kg, route intravenous
- Condition summary: in vivo, read-out: beta t1/2 (converted)
Property: half-life (h)
Lab book: enter the figure in h, no units written.

Consider the molecule shown here: O=C(c1ccc(F)c(F)c1)N1CCN2C(=O)c3ccccc3[C@@]12c1ccc(Cl)cc1 What is its recorded half-life? 80
